# Tested Target: Delta-type opioid receptor (Homo sapiens)
# Sequence (P41143 whole entry): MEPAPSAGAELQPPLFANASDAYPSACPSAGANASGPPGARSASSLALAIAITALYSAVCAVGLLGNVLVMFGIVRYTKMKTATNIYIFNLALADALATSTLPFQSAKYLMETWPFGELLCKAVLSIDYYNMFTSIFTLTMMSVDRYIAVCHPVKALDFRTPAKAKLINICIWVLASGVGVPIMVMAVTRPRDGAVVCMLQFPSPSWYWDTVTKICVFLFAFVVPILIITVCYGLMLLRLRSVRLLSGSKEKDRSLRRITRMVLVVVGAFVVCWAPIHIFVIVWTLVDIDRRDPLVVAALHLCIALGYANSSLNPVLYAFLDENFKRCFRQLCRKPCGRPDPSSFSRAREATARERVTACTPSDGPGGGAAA
# Method Notes: Displacement of [3H]DADLE from delta opioid receptor (unknown origin) expressed in HEK293T cells after 1.5 hrs by radioligand binding assay
pKi: −log10 of the molar value.
Overview of reported pKi across a group of compounds:

Below, each entry is followed by its recorded pKi result.
[
  {
    "Smiles Text": "COC(=O)[C@@H]1C[C@H](OC(=O)/C=C/c2ccc(OC)cc2OC)C(=O)[C@H]2[C@@]1(C)CC[C@H]1C(=O)O[C@H](c3ccoc3)C[C@]21C",
    "Reported Value": "< 5.00"
  },
  {
    "Smiles Text": "COC(=O)[C@@H]1C[C@H](OC(=O)/C=C/c2ccc([N+](=O)[O-])cc2)C(=O)[C@H]2[C@@]1(C)CC[C@H]1C(=O)O[C@H](c3ccoc3)C[C@]21C",
    "Reported Value": "< 5.00"
  },
  {
    "Smiles Text": "COC(=O)[C@@H]1C[C@H](OC(=O)/C=C/c2ccccc2[N+](=O)[O-])C(=O)[C@H]2[C@@]1(C)CC[C@H]1C(=O)O[C@H](c3ccoc3)C[C@]21C",
    "Reported Value": "< 5.00"
  },
  {
    "Smiles Text": "COC(=O)[C@@H]1C[C@H](OC(=O)/C=C/c2cc(OC)c(OC)c(OC)c2)C(=O)[C@H]2[C@@]1(C)CC[C@H]1C(=O)O[C@H](c3ccoc3)C[C@]21C",
    "Reported Value": "< 5.00"
  },
  {
    "Smiles Text": "COC(=O)[C@@H]1C[C@H](OC(=O)/C=C/c2ccsc2)C(=O)[C@H]2[C@@]1(C)CC[C@H]1C(=O)O[C@H](c3ccoc3)C[C@]21C",
    "Reported Value": 6.64
  }
]

Moving on to another compound below.
Which pKi is listed for "COC(=O)[C@@H]1C[C@H](OC(=O)/C=C/c2ccccc2OC)C(=O)[C@H]2[C@@]1(C)CC[C@H]1C(=O)O[C@H](c3ccoc3)C[C@]21C" ? < 5.00

* * *

# Species: Homo sapiens
# Method Notes: Selectivity ratio of Ki for mu opioid receptor (unknown origin) to ratio of Ki for kappa opioid receptor (unknown origin)
Overview of reported Ratio Ki across a group of molecules:

Which Ratio Ki is listed for C=CC(C)C(=O)O[C@H]1C[C@@H](C(=O)OC)[C@]2(C)CC[C@H]3C(=O)O[C@H](c4ccoc4)C[C@]3(C)[C@H]2C1=O (some centres undefined) ? 15

Which Ratio Ki is listed for "C=C(C)CC(=O)O[C@H]1C[C@@H](C(=O)OC)[C@]2(C)CC[C@H]3C(=O)O[C@H](c4ccoc4)C[C@]3(C)[C@H]2C1=O" ? 60

Which Ratio Ki is listed for "COC(=O)[C@@H]1C[C@H](OC(=O)/C=C/c2ccsc2)C(=O)[C@H]2[C@@]1(C)CC[C@H]1C(=O)O[C@H](c3ccoc3)C[C@]21C" ? 0.06

Which Ratio Ki is listed for "COC(=O)[C@@H]1C[C@H](OC(=O)/C=C/c2ccccc2)C(=O)[C@H]2[C@@]1(C)CC[C@H]1C(=O)O[C@H](c3ccoc3)C[C@]21C" ? 5.4

Which Ratio Ki is listed for "COC(=O)[C@@H]1C[C@H](OC(=O)/C=C/c2ccc3c(c2)OCO3)C(=O)[C@H]2[C@@]1(C)CC[C@H]1C(=O)O[C@H](c3ccoc3)C[C@]21C" ? 8.7

Which Ratio Ki is listed for "C=CC(=O)O[C@H]1C[C@@H](C(=O)OC)[C@]2(C)CC[C@H]3C(=O)O[C@H](c4ccoc4)C[C@]3(C)[C@H]2C1=O" ? 54

Which Ratio Ki is listed for "COC(=O)[C@@H]1C[C@H](OC(=O)/C=C/c2ccc(C(F)(F)F)cc2)C(=O)[C@H]2[C@@]1(C)CC[C@H]1C(=O)O[C@H](c3ccoc3)C[C@]21C" ? 1

Which Ratio Ki is listed for "C/C=C/C(=O)O[C@H]1C[C@@H](C(=O)OC)[C@]2(C)CC[C@H]3C(=O)O[C@H](c4ccoc4)C[C@]3(C)[C@H]2C1=O" ? 21

Which Ratio Ki is listed for "COC(=O)[C@@H]1C[C@H](OC(=O)C=C(C)C)C(=O)[C@H]2[C@@]1(C)CC[C@H]1C(=O)O[C@H](c3ccoc3)C[C@]21C" ? 0.73
